experiment: solubility; format: physicochemical; settings: biological grade DMSO, organic solvent or mixture
PARAMETER: solubility

Q: Give reported solubility value for `CC[C@@]12C=C(C(=O)OC)n3c(c(c4ccccc43)CCN(C(=O)c3ccccn3)CCC1)[C@@H]2c1ccc(O)cc1`
A: ≥ 100 mM

----------
system: chloroquine-resistant P. falciparum Dd2 parasites; assay: SYBR Green I dose–response assay against Dd2 parasites; type: cell-based; conditions: Plasmodium falciparum, DD2, read-out: EC50 Dd2, chloroquine-resistant P. falciparum Dd2, three or more independent experiments
Labelling field: enter y if recorded EC50 is less than 3000 nM. Enter n if it equals or exceeds that cut-off.

Q: Dear colleague, could you confirm whether EC50 of CC[C@@]12C=C(C(=O)OC)n3c(c(c4ccccc43)CCN(C(=O)c3ccno3)CCC1)[C@@H]2c1ccc(O)cc1 [Compound 28] falls below 3000 nM? Thanks.
A: y

Q: Dear colleague, could you confirm whether EC50 of CC[C@@]12C=C(C(=O)OC)n3c(c(c4ccccc43)CCN(C(C)=O)CCC1)[C@@H]2c1ccc(O)cc1 [Compound 20] falls below 3000 nM? Thanks.
A: n

Q: Dear colleague, could you confirm whether EC50 of CC[C@@]12C=C(C(=O)OC)n3c(c(c4ccccc43)CCN(C(=O)C3CCCCC3)CCC1)[C@@H]2c1ccc(O)cc1 [Compound 23] falls below 3000 nM? Thanks.
A: y

Q: Dear colleague, could you confirm whether EC50 of CC[C@@]12C=C(C(=O)OC)n3c(c(c4ccccc43)CCN(C(=O)c3ccc(C(F)(F)F)cc3)CCC1)[C@@H]2c1ccc(O)cc1 [Compound 24] falls below 3000 nM? Thanks.
A: y

Q: Dear colleague, could you confirm whether EC50 of CC[C@@]12C=C(C(=O)OC)n3c(c(c4ccccc43)CCN(C(=O)c3cccnc3)CCC1)[C@@H]2c1ccc(O)cc1 [Compound 25] falls below 3000 nM? Thanks.
A: y

Q: Dear colleague, could you confirm whether EC50 of CCN(CC)CCCC(C)Nc1ccnc2cc(Cl)ccc12 (stereo not shown) [Chloroquine, reference compound] falls below 3000 nM? Thanks.
A: y

Q: Dear colleague, could you confirm whether EC50 of CC[C@@]12C=C(C(=O)OC)n3c(c(c4ccccc43)CCN(C(=O)c3cncc(Br)c3)CCC1)[C@@H]2c1ccc(O)cc1 [Compound 33] falls below 3000 nM? Thanks.
A: y

Q: Dear colleague, could you confirm whether EC50 of CC[C@@]12C=C(C(=O)OC)n3c(c(c4ccccc43)CCN(C(=O)c3ccc(OC)nc3)CCC1)[C@@H]2c1ccc(O)cc1 [Compound 21] falls below 3000 nM? Thanks.
A: y

Q: Dear colleague, could you confirm whether EC50 of CC[C@@]12C=C(C(=O)OC)n3c(c(c4ccccc43)CCN(C(=O)c3cncc(Cl)c3)CCC1)[C@@H]2c1ccc(O)cc1 [Compound 32] falls below 3000 nM? Thanks.
A: y

Q: Dear colleague, could you confirm whether EC50 of CC[C@@]12C=C(C(=O)OC)n3c(c(c4ccccc43)CCN(/C=C/C(=O)OC)CCC1)[C@@H]2c1ccc(OC(C)=O)cc1 [Compound 19] falls below 3000 nM? Thanks.
A: n

Q: Dear colleague, could you confirm whether EC50 of CC[C@@]12C=C(C(=O)OC)n3c(c(c4ccccc43)CCNCCC1)[C@@H]2c1ccc(O)cc1 [Compound 18] falls below 3000 nM? Thanks.
A: n

Q: Dear colleague, could you confirm whether EC50 of CC[C@]12CCCN3CCc4c(n(c5ccccc45)[C@@](O)(C(=O)OC)C1)[C@@H]32 [Compound 1, Vincamine, reference compound] falls below 3000 nM? Thanks.
A: n

Q: Dear colleague, could you confirm whether EC50 of CC[C@@]12C=C(C(=O)OC)n3c(c(c4ccccc43)CCN(C(=O)c3ccncc3)CCC1)[C@@H]2c1ccc(O)cc1 [Compound 31] falls below 3000 nM? Thanks.
A: n

Q: Dear colleague, could you confirm whether EC50 of CC[C@@]12C=C(C(=O)OC)n3c(c(c4ccccc43)CCN(C(=O)c3ccco3)CCC1)[C@@H]2c1ccc(O)cc1 [Compound 26] falls below 3000 nM? Thanks.
A: y

Q: Dear colleague, could you confirm whether EC50 of CC[C@@]12C=C(C(=O)OC)n3c(c(c4ccccc43)CCN(C(=O)c3cncnc3)CCC1)[C@@H]2c1ccc(O)cc1 [Compound 27] falls below 3000 nM? Thanks.
A: y

Q: Dear colleague, could you confirm whether EC50 of CC[C@@]12C=C(C(=O)OC)n3c(c(c4ccccc43)CCN(C(=O)c3ccccn3)CCC1)[C@@H]2c1ccc(O)cc1 [Compound 30] falls below 3000 nM? Thanks.
A: y

Q: Dear colleague, could you confirm whether EC50 of CC[C@@]12C=C(C(=O)OC)n3c(c(c4ccccc43)CCN(C(=O)COCCOCCOC)CCC1)[C@@H]2c1ccc(O)cc1 [Compound 22] falls below 3000 nM? Thanks.
A: n

----------
assay: solubility; assay type: physicochemical; conditions: PBS buffer, aqueous buffer, kinetic from dmso stock
PARAMETER: solubility at 24 h

Q: Give reported solubility at 24 h value for CC[C@@]12C=C(C(=O)OC)n3c(c(c4ccccc43)CCN(C(=O)c3ccccn3)CCC1)[C@@H]2c1ccc(O)cc1 [Compound 30]
A: ≥ 100 µM

----------
Please provide measured pEC50 for the entries that follow.
tested on: wild-type P. falciparum 3D7 cells; assay: dose–response assay against 3D7 cells; format: cell-based; conditions: Plasmodium falciparum, 3D7, read-out: EC50 3D7
By convention, pEC50 is the negative base-10 log of a molar concentration.

Q: Give reported pEC50 value for CC[C@@]12C=C(C(=O)OC)n3c(c(c4ccccc43)CCN(C(=O)c3ccc(OC)nc3)CCC1)[C@@H]2c1ccc(O)cc1 [Compound 21]
A: 5.88

Q: Give reported pEC50 value for CC[C@@]12C=C(C(=O)OC)n3c(c(c4ccccc43)CCN(C(=O)c3ccc[nH]3)CCC1)[C@@H]2c1ccc(O)cc1 [Compound 29]
A: 5.50

Q: Give reported pEC50 value for CC[C@@]12C=C(C(=O)OC)n3c(c(c4ccccc43)CCN(C(=O)c3cncc(Br)c3)CCC1)[C@@H]2c1ccc(O)cc1 [Compound 33]
A: 5.77

Q: Give reported pEC50 value for CC[C@@]12C=C(C(=O)OC)n3c(c(c4ccccc43)CCN(C(C)=O)CCC1)[C@@H]2c1ccc(O)cc1 [Compound 20]
A: 4.92

Q: Give reported pEC50 value for CC[C@@]12C=C(C(=O)OC)n3c(c(c4ccccc43)CCN(C(=O)c3ccccn3)CCC1)[C@@H]2c1ccc(O)cc1 [Compound 30]
A: 5.92

Q: Give reported pEC50 value for CC[C@@]12C=C(C(=O)OC)n3c(c(c4ccccc43)CCN(C(=O)c3cncnc3)CCC1)[C@@H]2c1ccc(O)cc1 [Compound 27]
A: 5.70

Q: Give reported pEC50 value for CC[C@@]12C=C(C(=O)OC)n3c(c(c4ccccc43)CCN(C(=O)c3cncc(Cl)c3)CCC1)[C@@H]2c1ccc(O)cc1 [Compound 32]
A: 5.65

Q: Give reported pEC50 value for CC[C@@]12C=C(C(=O)OC)n3c(c(c4ccccc43)CCN(C(=O)c3ccco3)CCC1)[C@@H]2c1ccc(O)cc1 [Compound 26]
A: 5.74

Q: Give reported pEC50 value for CCN(CC)CCCC(C)Nc1ccnc2cc(Cl)ccc12 (stereo not shown) [Chloroquine, reference compound]
A: 7.77

Q: Give reported pEC50 value for CC[C@@]12C=C(C(=O)OC)n3c(c(c4ccccc43)CCN(C(=O)c3ccno3)CCC1)[C@@H]2c1ccc(O)cc1 [Compound 28]
A: 6.01

Q: Give reported pEC50 value for CC[C@@]12C=C(C(=O)OC)n3c(c(c4ccccc43)CCN(C(=O)c3cccnc3)CCC1)[C@@H]2c1ccc(O)cc1 [Compound 25]
A: 5.65

Q: Give reported pEC50 value for CC[C@@]12C=C(C(=O)OC)n3c(c(c4ccccc43)CCN(C(=O)c3ccccc3)CCC1)[C@@H]2c1ccc(O)cc1 [Compound 34]
A: 5.18
